system: foxtail, giant (giant foxtail, Setaria faberii); test: Test C greenhouse herbicide test, pre- and postemergence; assay type: in vivo; details: Postemergence, 31 g ai/ha; 0 to 100 scale (0 no effect, 100 complete control)
measured-attribute: Foxtail, Giant plant response rating
Form: value (number only, do not type unit).

> print(dat)
                                 smiles  quantitative.readout
1  Cc1nn(C)c(=O)c(-c2c(C)sc3ccccc23)c1O                    10

From here, focus on the item given below.
Prompt line: Answer with the recorded Foxtail, Giant plant response rating for the molecule listed here: `CCOC(=O)Oc1c(C)nn(C)c(=O)c1-c1c(C)ccc2ccccc12`
Response line: 40

###

test system: pigweed (Amaranthus retroflexus); assay: Test C greenhouse herbicide test, pre- and postemergence; assay type: in vivo; settings: Preemergence, 125 g ai/ha; scale 0 to 100, 0 is no effect, 100 is complete control
Measured Plant response rating, Pigweed, listed per entry.

# count of solved cases: 3
> print(dat)
                                     smiles              measured.attribute  result
1  CC(=O)Oc1c(C)nn(C)c(=O)c1-c1c(C)sc2ccc(C)cc12  Plant response rating, Pigweed     100
2  CCC(=O)Oc1c(C)nn(C)c(=O)c1-c1c(C)sc2ccc(C)cc12  Plant response rating, Pigweed     100
3  CCC(=O)Oc1c(Cl)nn(C)c(=O)c1-c1c(C)sc2ccc(Cl)cc12  Plant response rating, Pigweed      98

Prompt line: Answer with the recorded Plant response rating, Pigweed for the molecule listed here: `CCCC(=O)Oc1c(C)nn(C)c(=O)c1-c1c(C)sc2c(C)cc(C)cc12`
Response line: 100

Prompt line: Answer with the recorded Plant response rating, Pigweed for the molecule listed here: `CCOC(=O)Oc1c(C)nn(C)c(=O)c1-c1c(C)ccc2ccccc12`
Response line: 100

Prompt line: Answer with the recorded Plant response rating, Pigweed for the molecule listed here: `CC(=O)Oc1c(C)nn(C)c(=O)c1-c1c(C)sc2c(C)cc(C)cc12`
Response line: 98

Prompt line: Answer with the recorded Plant response rating, Pigweed for the molecule listed here: `CCOC(=O)Oc1c(C)nn(C)c(=O)c1-c1c(C)sc2c(C)cc(C)cc12`
Response line: 100

Prompt line: Answer with the recorded Plant response rating, Pigweed for the molecule listed here: `COC(=O)Oc1c(Br)nn(C)c(=O)c1-c1c(C)ccc2ccccc12`
Response line: 100

Prompt line: Answer with the recorded Plant response rating, Pigweed for the molecule listed here: `COc1nn(C)c(=O)c(-c2c(C)ccc3ccccc23)c1OC(=O)OC(C)C`
Response line: 100

Prompt line: Answer with the recorded Plant response rating, Pigweed for the molecule listed here: `CSCC(=O)Oc1c(C)nn(C)c(=O)c1-c1cccc2ccccc12`
Response line: 100

###

tested on: waterhemp (common waterhemp, Amaranthus rudis); assay: Test C greenhouse herbicide test, pre- and postemergence; assay type: in vivo; conditions: Postemergence, 250 g ai/ha; scale 0 to 100, 0 no effect, 100 complete control; 13 to 15 d
measured-attribute: Plant response rating, Waterhemp
Form: value (number only, do not type unit).

Prompt line: Answer with the recorded Plant response rating, Waterhemp for the compound listed here: `CCOC(=O)Oc1c(C)nn(C)c(=O)c1-c1c(CC)ccc2ccccc12`
Response line: 98

Prompt line: Answer with the recorded Plant response rating, Waterhemp for the compound listed here: `CCCC(=O)Oc1c(C)nn(C)c(=O)c1-c1c(C)sc2c(C)cc(C)cc12`
Response line: 80

Prompt line: Answer with the recorded Plant response rating, Waterhemp for the compound listed here: `CC(=O)Oc1c(Br)nn(C)c(=O)c1-c1c(C)ccc2ccccc12`
Response line: 98

Prompt line: Answer with the recorded Plant response rating, Waterhemp for the compound listed here: `Cc1ccc2ccccc2c1-c1c(O)cnn(C)c1=O`
Response line: 90

Prompt line: Answer with the recorded Plant response rating, Waterhemp for the compound listed here: `COc1nn(C)c(=O)c(-c2c(C)ccc3ccccc23)c1O`
Response line: 95
